# assay.explanation: Quantitative High-Throughput drug screen in 47 multiple myeloma cell lines against the NCATS MIPE library collection: KMS28PE_JCRB cell viability assay (AID 1918983); note: nearly all actives have a fitted effect of over 35% in size
# stated.conditions: KMS28PE multiple myeloma viability, CellTiter-Glo ATP, 48 h; series mostly up to 45.8 µM
Records with an inconclusive call do not appear. Active and inactive are the calls of the source. Calls come from the whole dose curve; as a rule, active = well fitted cell-killing curve with a large enough effect; inconclusive = small, poorly fitted or top-dose-only effect, or effect the other way; inactive = no such curve, though single readings can be large or run the other way.
Labels: active, inactive

{"compound": "COc1cc2nc(-c3cc(F)ccc3O)nc(N[C@@H]3CNC[C@@H]3C(C)(C)O)c2cc1OC", "qualitative.label": "active"}
{"compound": "Cc1[nH]c(C=C2C(=O)Nc3ccc(S(=O)(=O)N(C)c4cccc(Cl)c4)cc32)c(C)c1C(=O)N1CCN(C)CC1", "qualitative.label": "active"}
{"compound": "COc1cc2nccc(Oc3ccc(NC(=O)Nc4ccc(F)cc4F)c(F)c3)c2cc1OC", "qualitative.label": "active"}
{"compound": "CC1CCN(c2cc(N3CCN(C)CC3)ccc2NC(=O)c2cc(C#N)c[nH]2)CC1", "qualitative.label": "active"}
{"compound": "Clc1ccc(C2(c3ccc(-c4cn[nH]c4)cc3)CCNCC2)cc1", "qualitative.label": "active"}
{"compound": "CCCCC(C=O)NC(=O)C(CC(C)C)NC(=O)OCc1ccccc1 (stereo not drawn)", "qualitative.label": "active"}
{"compound": "CC(=O)N1CCN(c2ccc(OCc3nn(C)c(C)c3-c3cccc4c(CCCOc5cc(C)c(Cl)c(C)c5)c(C(=O)O)n(Cc5cccnc5)c34)cc2)CC1", "qualitative.label": "active"}
{"compound": "C[C@@H](NC(=O)c1ncnc(N)c1Cl)c1ncc(C(=O)Nc2cc(C(F)(F)F)c(Cl)cn2)s1", "qualitative.label": "active"}
{"compound": "CC(C)C[C@H](NC(=O)c1cc2ccccc2s1)C(=O)N1CCN(C(=O)[C@H](CO)NS(=O)(=O)c2ccc(Cl)cc2Cl)CC1", "qualitative.label": "active"}
{"compound": "CN(C)CC[C@H](CSc1ccccc1)Nc1ccc(S(=O)(=O)NC(=O)c2ccc(N3CCN(Cc4ccccc4-c4ccc(Cl)cc4)CC3)cc2)cc1[N+](=O)[O-]", "qualitative.label": "active"}
{"compound": "COc1ccnc(CS(=O)c2nc3ccc(OC(F)F)cc3[nH]2)c1OC (stereo not drawn)", "qualitative.label": "inactive"}
{"compound": "C#CCN(C)CC1=Cc2ccccc2Oc2ccccc21", "qualitative.label": "active"}
{"compound": "CC[C@H](C)C(=O)O[C@H]1C[C@H](O)C=C2C=C[C@H](C)[C@H](CC[C@@H](O)C[C@@H](O)CC(=O)O)[C@H]21", "qualitative.label": "inactive"}
{"compound": "Nc1ccc(-c2ccc3ncc4ccc(=O)n(-c5cccc(C(F)(F)F)c5)c4c3c2)cn1", "qualitative.label": "active"}
{"compound": "CCCCOCCOc1nc(-c2ccc(C(=O)O)c(F)c2)sc1C", "qualitative.label": "inactive"}
{"compound": "Cc1cc2nc3c(=O)[nH]c(=O)nc-3n(CC(O)C(O)C(O)CO)c2cc1C (stereo not drawn)", "qualitative.label": "active"}
{"compound": "C[C@@]1(C(=O)Nc2ccc(F)nc2)CCCN1c1nc(Nc2cc(C3CC3)[nH]n2)c2cccn2n1", "qualitative.label": "active"}
{"compound": "CSc1cccc(Nc2ncc3cc(-c4c(Cl)cccc4Cl)c(=O)n(C)c3n2)c1", "qualitative.label": "active"}
{"compound": "CO[C@H]1O[C@@H]2O[C@@]3(C)CC[C@@H]4[C@@H](C)CC[C@@H]([C@H]1C)[C@@]24OO3", "qualitative.label": "active"}
{"compound": "CN1N=C(N)c2cn([C@@H]3O[C@H](COP(=O)(O)O)[C@@H](O)[C@@H]3O)c3ncnc1c23", "qualitative.label": "active"}
{"compound": "C[C@@H]1[C@H](O)[C@@H](C)C=CC=CC=CC=CC=CC=CC=C[C@H](O[C@@H]2O[C@H](C)[C@H](O)[C@H](N)[C@@H]2O)C[C@@H]2O[C@](O)(C[C@@H](O)C[C@@H](O)[C@H](O)CC[C@@H](O)C[C@@H](O)CC(=O)O[C@H]1C)C[C@H](O)[C@@H]2C(=O)O", "qualitative.label": "inactive"}
{"compound": "Cc1ccccc1-n1c(Cn2nc(-c3cccc(O)c3)c3c(N)ncnc32)nc2cccc(C)c2c1=O", "qualitative.label": "active"}
{"compound": "CCCCCOC(=O)Nc1nc(=O)n([C@@H]2O[C@H](C)[C@@H](O)C2O)cc1F (stereo partly drawn)", "qualitative.label": "inactive"}
{"compound": "CN1CCN(c2cccc(Nc3nc4c(-c5ccc(S(C)(=O)=O)cc5)cccn4n3)c2)CC1", "qualitative.label": "active"}
{"compound": "C[C@@H]1C[C@H]2[C@@H]3CCC4=CC(=O)C=C[C@]4(C)[C@@]3(F)[C@@H](O)C[C@]2(C)[C@@]1(O)C(=O)CO", "qualitative.label": "inactive"}
{"compound": "O=C(CC12CC3CC(CC(C3)C1)C2)Nc1cccc2nc(NCCNCCO)ccc12", "qualitative.label": "active"}
{"compound": "COc1cc2c(cc1OC)[C@@H]1Cc3ccc(OC)c(OC)c3CN1CC2", "qualitative.label": "active"}
{"compound": "CC(=O)OCC(=O)[C@@]12OC(C)(C)O[C@H]1C[C@H]1[C@@H]3C[C@H](F)C4=CC(=O)C=C[C@]4(C)[C@@]3(F)[C@@H](O)C[C@@]12C", "qualitative.label": "inactive"}
{"compound": "C[C@]12C=CC(=O)C=C1CC[C@@H]1[C@@H]2[C@@H](O)C[C@@]2(C)[C@@H]1CC[C@]2(O)C(=O)CO", "qualitative.label": "inactive"}
{"compound": "O=C(O)Cc1cccc(OCCCN(Cc2cccc(C(F)(F)F)c2Cl)CC(c2ccccc2)c2ccccc2)c1", "qualitative.label": "active"}
{"compound": "O=S(=O)(O)c1ccc2cc(N=Nc3cc(S(=O)(=O)O)c4cccnc4c3O)ccc2c1", "qualitative.label": "active"}
{"compound": "Cc1ccccc1C(C(=O)NC1CCCCC1)N(C(=O)CNc1ccc(C#N)cc1)c1cccc(F)c1 (stereo not drawn)", "qualitative.label": "inactive"}
{"compound": "O=C(C=Cc1ccc(O)cc1)c1ccc(O)cc1O", "qualitative.label": "active"}

The values you see were collected from PubChem BioAssay (NCATS).
